The following compounds are listed with their measured pIC50 values.
system-tested: Botulinum neurotoxin type A (Clostridium botulinum)
Sequence (P0DPI0 2-448 limits assumed): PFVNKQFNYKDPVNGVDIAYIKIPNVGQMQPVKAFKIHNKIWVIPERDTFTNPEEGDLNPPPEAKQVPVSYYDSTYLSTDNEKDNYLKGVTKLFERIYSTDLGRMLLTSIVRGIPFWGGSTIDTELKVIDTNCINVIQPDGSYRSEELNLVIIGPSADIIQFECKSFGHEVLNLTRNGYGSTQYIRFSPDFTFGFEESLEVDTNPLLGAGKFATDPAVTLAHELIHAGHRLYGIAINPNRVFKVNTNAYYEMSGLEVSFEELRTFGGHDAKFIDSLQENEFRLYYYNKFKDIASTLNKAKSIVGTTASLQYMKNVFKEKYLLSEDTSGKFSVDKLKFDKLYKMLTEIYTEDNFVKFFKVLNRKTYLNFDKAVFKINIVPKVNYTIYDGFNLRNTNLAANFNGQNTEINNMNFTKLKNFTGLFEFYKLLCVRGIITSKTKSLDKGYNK
protocol-notes: Inhibition of Clostridium botulinum toxin BoNT/A light chain by HPLC-based assay
Note on units: pIC50 is unitless, being -log10 of a concentration expressed in mol/L.

Answered examples (4):
>>> test_result("c1cc(C2=NCCN2)ccc1Oc1ccc(-c2cc3ccc(C4=NCCN4)cc3s2)cc1")
4.60
>>> test_result("c1cc(C2=NCCCN2)ccc1Oc1ccc(-c2cc3ccc(C4=NCCCN4)cc3[nH]2)cc1")
4.37
>>> test_result("N=C(N)c1ccc(Oc2ccc(-c3cc4ccc(C(=N)N)cc4[nH]3)cc2)cc1")
4.77
>>> test_result("Clc1ccc(Oc2ccc(-c3cc4ccc(C5=NCCN5)cc4[nH]3)cc2)c(Cl)c1")
4.28

Request body: readout pIC50, system Botulinum neurotoxin type A (Clostridium botulinum), query c1cc(C2=NCCN2)ccc1Oc1ccc(-c2cc3ccc(C4=NCCN4)cc3[nH]2)cc1 . Return the value.
5.03
